All figures here come from patent US20260265358A1.

Molecular target: T1, biotinylated Human Activin A (human, UniProt P03970 309-424 (pig entry), biotinylated (EZ-Link Sulfo-NHS-Biotinylation Kit))
T1 sequence: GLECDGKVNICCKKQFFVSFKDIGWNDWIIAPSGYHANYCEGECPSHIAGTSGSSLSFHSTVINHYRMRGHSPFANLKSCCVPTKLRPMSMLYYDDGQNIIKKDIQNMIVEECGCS
Test: SPR (Biacore 8K), antigen captured, Fab analyte
metric-name: Kd (nM)

Fab of anti-Activin A antibody Clone K (Fab, V domains shown, Fab format; only VH and VL are tied to the clone; also called Clone K Fab) VH: QVQLVQSGAEVKKPGSSVKVSCKASGGTSSSYAISWVRQAPGQGLEWMGYIIPAFGTANYAQKFQGRVTITADESTSTAYMELSSLRSEDTAVYYCARPVRTYPLGKYFYHWGQGTLVTVSS VL: EIVLTQSPATLSLSPGERATLSCRASQSVSSYLAWYQQKPGQAPRLLIYDASNRATGIPARFSGSGSGTDFTLTISSLEPEDFAVYYCQQDSIFPPYTFGGGTKVEIK    0.0367
Fab of anti-Activin A antibody Clone J (Fab, V domains shown, Fab format; only VH and VL are tied to the clone; also called Clone J Fab) VH: EVQLVQSGAEVKKPGSSVKVSCKASGGTFSLYAISWVRQAPGQGLEWMGGIIPYFGTANYAQKFQGRVTITADESTSTAYMELSSLRSEDTAVYYCARGGSGYSTSWGSSLYWGQGTLVTVSS VL: EIVLTQSPGTLSLSPGERATLSCRASQSVSSSYLAWYQQKPGQAPRLLIYGAFSRATGIPDRFSGSGSGTDFTLTISRLEPEDFAVYYCQQSGVFPYTFGGGTKVEIK    0.118
Fab of anti-Activin A antibody Clone E (Fab, V domains shown, Fab format; only VH and VL are tied to the clone; also called Clone E Fab) VH: QVQLVQSGAEVKKPGASVKVSCKASGYTFHGYNMHWVRQAPGQGLEWMGSINPYSGYTIYAQKFQGRVTMTRDTSISTAYMELSRLRSDDTAVYYCARARDIAAAGLGAFDYWGQGTLVTVSS VL: EIVLTQSPGTLSLSPGERATLSCRASQSVRSSYLAWYQQKPGQAPRLLIYGASSRATGIPDRFSGSGSGTDFTLTISRLEPEDFAVYYCQQYVSYPRTFGGGTKVEIK    0.0779
Fab of anti-Activin A antibody Clone F (Fab, V domains shown, Fab format; only VH and VL are tied to the clone; also called Clone F Fab) VH: QVQLVQSGAEVKKPGASVKVSCKASGYTFTGYHIHWVRQVPGQGLEWMGVISAYSGDTNYAQKLQGRVTMTTDTSTSTAYMELRSLRSDDTAVYYCARARDIAALGLGAFDYWGQGTLVTVSS VL: EIVLTQSPATLSVSPGERATLSCRASQSVSSNLAWYQQKPGQAPRLLIYGASDRATGIPARFSGSGSGTEFTLTISSLQSEDFAVYYCIQYSNYPRTFGGGTKVEIK    0.0431
Fab of anti-Activin A antibody Clone G (Fab, V domains shown, Fab format; only VH and VL are tied to the clone; also called Clone G Fab) VH: QVQLVQSGAEVKKPGASVKVSCKASGYTFTSYYIHWVRQAPGQGLEWMGAIYAYSGDTNYAQKLQGRVTMTTDTSTSTAYMELRSLRSDDTAVYYCARARDIAAAGLGAFDYWGQGTLVTVSS VL: EIVLTQSPGTLSLSPGERATLSCRASQSVRSSYLAWYQQKPGQAPRLLIYGASSRATGIPDRFSGSGSGTDFTLTISRLEPEDFAVYYCQQYSNYPRTFGGGTKVEIK    0.0849
Fab of anti-Activin A antibody Clone H (Fab, V domains shown, Fab format; only VH and VL are tied to the clone; also called Clone H Fab) VH: QVQLVQSGAEVKKPGASVKVSCKASGYTFTGYHIHWVRQAPGQGLEWMGHISAYSGTTNYAQKLQGRVTMTTDTSTSTAYMELRSLRSDDTAVYYCARARDIAAAGLGAFDYWGQGTLVTVSS VL: EIVLTQSPGTLSLSPGERATLSCRASQSVRSSYLAWYQQKPGQAPRLLIYGASSRATGIPDRFSGSGSGTDFTLTISRLEPEDFAVYYCQQYSNYPRTFGGGTKVEIK    0.96
Fab of anti-Activin A antibody Clone I (Fab, V domains shown, Fab format; only VH and VL are tied to the clone; also called Clone I Fab) VH: QVQLVQSGAEVKKPGSSVKVSCKASGGTFSNYAISWVRQAPGQGLEWMGYIIPFFGTANYAQKFQGRVTITADESTSTAYMELSSLRSEDTAVYYCARGGSGYSTSWGSSLYWGQGTLVTVSS VL: EIVLTQSPGTLSLSPGERATLSCRASQSVSSSYLAWYQQKPGQAPRLLIYGASYRATGIPDRFSGSGSGTDFTLTISRLEPEDFAVYYCLQSGVFPYTFGGGTKVEIK    0.0616
